- tgt: T1, human PD-L1 (construct not stated) (human, UniProt Q9NZQ7 19-239, limits assumed)
- T1 construct: also called B7-H1 (PD-L1); PD-L1 protein
- procedure_details: BLI Octet Red 96, affinity ranking
measured_metric: koff

INSERT INTO assay_data (binder, recorded_value) VALUES
  ('Hu1210-13 (antibody, V domains shown, Hu1210 VH.3 x Vk.1; human gamma 1 / kappa constant domains) VH: EVQLLESGGGLVQPGGSLRLSCAASGFTFSSYDMSWVRQAPGKGLEWVSTISDGGGYIYYSDSVKGRFTISRDNSKNTLYLQMNSLRAEDTAVYYCAREFGKRYALDYWGQGTTVTVSS VL: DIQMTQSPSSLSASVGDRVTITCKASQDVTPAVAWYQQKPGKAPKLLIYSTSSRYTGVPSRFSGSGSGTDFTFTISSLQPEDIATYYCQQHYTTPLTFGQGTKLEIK', '0.000366 s⁻¹'),
  ('Hu1210-17 (antibody, V domains shown, Hu1210 VH.4b x Vk.1; human gamma 1 / kappa constant domains) VH: EVQLVESGGGLVQPGGSLRLSCAASGFTFSSYDMSWVRQAPGKSLEWVATISDGGGYIYYSDSVKGRFTISRDNAKNSLYLQMNSLRDEDTAVYICAREFGKRYALDYWGQGTTVTVSS VL: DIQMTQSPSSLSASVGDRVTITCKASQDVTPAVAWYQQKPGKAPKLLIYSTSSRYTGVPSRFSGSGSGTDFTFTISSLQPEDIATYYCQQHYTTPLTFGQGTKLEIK', '0.00018 s⁻¹');
